Ki by entry:
molecular target: Dimer of Gag-Pol polyprotein [501-599] (Human immunodeficiency virus 1, UniProt P03367); construct: 501-599; test: Protease Inhibition Assay; conditions: pH 4.7; 30 °C
MEASUREMENT LABEL: Ki (µM)

INSERT INTO results (input_smiles, qualifying_sign, observed_value) VALUES
  ('Cc1ccc(S(=O)(=O)NCCC[C@H](NC(=O)OCC2c3ccccc3-c3ccccc32)C(=O)O)cc1', '=', 26.2),
  ('Cc1ccc(S(=O)(=O)N(CC(C)C)[C@@H](CCCCNC(=O)OCC2c3ccccc3-c3ccccc32)C(=O)O)cc1', '=', 0.005),
  ('Cc1ccc(S(=O)(=O)N[C@@H](CCCCNC(=O)OC(C)(C)C)C(=O)O)cc1', '>', 100),
  ('Cc1ccc(S(=O)(=O)N(CCCC[C@H](NC(=O)OCC2c3ccccc3-c3ccccc32)C(=O)O)CC(C)C)cc1', '=', 2),
  ('CC(C)(C)OC(=O)NCCCC[C@H](NC(=O)OCc1ccccc1)C(=O)O', '>', 100);

---

molecular target: Dimer of Gag-Pol polyprotein [501-599] (Human immunodeficiency virus 1); construct: 501-599; experiment: Protease Inhibition Assay
MEASUREMENT LABEL: Ki

INSERT INTO results (input_smiles, observed_value) VALUES
  ('CC(C)CN(C(=O)c1ccccc1)[C@@H](CCCCNC(=O)OCC1c2ccccc2-c2ccccc21)C(=O)O', '> 300 nM'),
  ('Cc1ccc(S(=O)(=O)N(CC(C)C)[C@@H](CCCCCNC(=O)OCC2c3ccccc3-c3ccccc32)C(=O)O)cc1', '> 250 nM'),
  ('Cc1ccc(S(=O)(=O)N(CC(C)C)[C@@H](CCCCNC(=O)OC(C)(C)C)C(=O)O)cc1', '> 250 nM'),
  ('Cc1ccc(S(=O)(=O)N(CC(C)C)[C@H](CN)CCCCNC(=O)OCC2c3ccccc3-c3ccccc32)cc1', '> 300 nM'),
  ('Cc1ccc(S(=O)(=O)N(CC(C)C)[C@H](C=O)CCCCNC(=O)OCC2c3ccccc3-c3ccccc32)cc1', '> 300 nM'),
  ('Cc1ccc(S(=O)(=O)N(CC(C)C)[C@@H](CCNC(=O)OCC2c3ccccc3-c3ccccc32)C(=O)O)cc1', '> 250 nM'),
  ('Cc1ccc(S(=O)(=O)N(CC(C)C)[C@@H](CCCCNC(=O)OCC2c3ccccc3-c3ccccc32)c2nnn[nH]2)cc1', '> 300 nM'),
  ('COC(=O)[C@H](CCCCNC(=O)OCC1c2ccccc2-c2ccccc21)N(CC(C)C)S(=O)(=O)c1ccc(C)cc1', '> 300 nM'),
  ('Cc1ccc(S(=O)(=O)N(CC(C)C)[C@@H](CNC(=O)OCC2c3ccccc3-c3ccccc32)C(=O)O)cc1', '> 250 nM');

Provenance of the data: BindingDB's records for doi:10.1016/j.bmcl.2004.12.068
